Attribution: patent US10213415B2

SYSTEM_NAME: mu opioid receptor (CHO-hMOR cell membranes) (Homo sapiens)
Construct: purchased Receptor Biology, Inc. (Baltimore, Md.); host or cells: CHO cells (recombinant expression)
Sequence (P35372 whole entry): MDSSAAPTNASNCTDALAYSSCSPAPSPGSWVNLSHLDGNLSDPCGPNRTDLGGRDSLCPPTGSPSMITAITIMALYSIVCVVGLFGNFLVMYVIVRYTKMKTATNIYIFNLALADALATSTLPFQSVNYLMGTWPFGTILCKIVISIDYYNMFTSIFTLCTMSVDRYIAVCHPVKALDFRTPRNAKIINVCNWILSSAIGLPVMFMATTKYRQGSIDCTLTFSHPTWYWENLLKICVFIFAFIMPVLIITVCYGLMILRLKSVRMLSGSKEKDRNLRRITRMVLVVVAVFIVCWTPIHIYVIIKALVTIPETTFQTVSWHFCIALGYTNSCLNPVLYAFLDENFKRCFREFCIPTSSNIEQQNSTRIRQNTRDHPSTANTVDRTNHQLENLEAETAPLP
METHOD_DESCRIPTION: Mu Opioid Receptor Functional Assay: [35S]GTPγS Binding in CHO-hMOR Cell Membranes, Versions 1 and 2
Type: biochemical
CONDITION_DESCRIPTION: version 1, % inhibition of agonist-stimulated GTPγS binding
Below, each entry is listed with its recorded MOR GTP binding assay_v1 (% I).

{"columns": ["MOLECULE", "MOR GTP binding assay_v1 (% I), %"],
 "data": [
  ["Cc1cc(O)cc(C)c1C[C@H](N)C(=O)N(C)Cc1nc(-c2ccccc2)c[nH]1", 11.00],
  ["Cc1ccccc1-c1nc(CN(C(=O)[C@@H](N)Cc2c(C)cc(O)cc2C)C(C)C)[nH]c1C", 1.00],
  ["Cc1cc(O)cc(C)c1C[C@H](N)C(=O)N(C)[C@@H](CC(C)C)c1nc(-c2ccccc2)c[nH]1", 42.00],
  ["Cc1cc(O)cc(C)c1C[C@H](N)C(=O)N[C@@H](COCc1ccccc1)c1nc(-c2ccccc2)c[nH]1", 53.00],
  ["Cc1cc(O)cc(C)c1C[C@H](N)C(=O)N(Cc1nc(-c2ccsc2)c(C)[nH]1)C(C)C", 2.79],
  ["C[C@@H](c1nc(-c2ccccc2)c[nH]1)N(C)C(=O)[C@@H](N)Cc1ccc(O)cc1", 10.00],
  ["Cc1cc(O)cc(C)c1C[C@H](N)C(=O)N(Cc1ccccc1)[C@@H](C)c1nc(-c2ccccc2)c[nH]1", 1.00],
  ["Cc1cc(O)cc(C)c1C[C@H](N)C(=O)N(Cc1nc(-c2ccc(F)cc2)c(C)[nH]1)C(C)C", 1.00],
  ["Cc1cc(O)cc(C)c1C[C@H](N)C(=O)N(Cc1nc(-c2ccccc2)c[nH]1)C(C)CN(C)C (stereo partly drawn)", 17.00],
  ["Cc1cc(O)cc(C)c1C[C@H](N)C(=O)N(Cc1nc(-c2ccccc2C(F)(F)F)c(C)[nH]1)C(C)C", 24.19],
  ["Cc1cc(O)cc(C)c1C[C@H](N)C(=O)N(Cc1nc(-c2ccccc2F)c(C)[nH]1)C(C)C", 3.31],
  ["CCN(C(=O)[C@@H](N)Cc1c(C)cc(O)cc1C)[C@@H](C)c1nc(-c2ccccc2)c[nH]1", 1.00],
  ["C[C@H](c1nc(-c2ccccc2)c[nH]1)N(C)C(=O)[C@@H](N)Cc1ccc(O)cc1", 10.00],
  ["Cc1cc(O)cc(C)c1C[C@H](N)C(=O)N(Cc1nc(-c2ccccc2)c[nH]1)CC1CC1", 30.00],
  ["Cc1cc(O)cc(C)c1C[C@H](N)C(=O)N(Cc1nc(-c2cc(C(F)(F)F)cc(C(F)(F)F)c2)c(C)[nH]1)C(C)C", 1.00],
  ["CCN(C(=O)[C@@H](N)Cc1ccc(O)cc1)[C@@H](C)c1nc(-c2ccccc2)c[nH]1", 1.00],
  ["CCNC(=O)c1cc(C)c(C[C@H](N)C(=O)N(C)[C@@H](C)c2nc(-c3ccccc3)c[nH]2)c(C)c1", 1.00],
  ["Cc1cc(O)cc(C)c1C[C@H](N)C(=O)N(Cc1nc(-c2cncnc2)c(C)[nH]1)C(C)C", 28.64],
  ["CC(C)N(Cc1nc(-c2ccccc2)c[nH]1)C(=O)[C@@H](N)Cc1ccc(O)cc1", 34.00],
  ["CNC(=O)c1cc(C)c(C[C@H](N)C(=O)N(C)[C@H](C)c2nc(-c3ccccc3)c[nH]2)c(C)c1", 13.00],
  ["C[C@@H](c1nc(-c2ccccc2)c[nH]1)N(C)C(=O)[C@@H](N)Cc1ccc(C(N)=O)cc1", 1.00],
  ["CCN(C(=O)[C@@H](N)Cc1c(C)cc(C(N)=O)cc1C)[C@@H](C)c1nc(-c2ccccc2)c[nH]1", 1.00],
  ["N[C@@H](Cc1ccc(O)cc1)C(=O)N(Cc1nc(-c2ccccc2)c[nH]1)CC1CC1", 54.00],
  ["Cc1cc(O)cc(C)c1C[C@H](N)C(=O)N(Cc1nc(-c2ccccc2)c(C)[nH]1)C(C)C", 1.00],
  ["CCN(C(=O)[C@@H](N)Cc1ccc(O)cc1)[C@H](C)c1nc(-c2ccccc2)c[nH]1", 3.00],
  ["CCN(C(=O)[C@@H](N)Cc1c(C)cc(O)cc1C)[C@H](C)c1nc(-c2ccccc2)c[nH]1", 1.00],
  ["Cc1cc(C(N)=O)cc(C)c1C[C@H](N)C(=O)N(Cc1ccccc1)[C@@H](C)c1nc(-c2ccccc2)c[nH]1", 13.20]
]}
